Provenance of the data: patent US8420676B2

Test system: methicillin resistant Staphylococcus aureus (MRSA)
Assay: Assay for in vitro antibacterial activity, agar dilution (MRSA)
Settings: read-out: Minimum Inhibitory Concentration (MIC50) MRSA
measure: MIC50 (µg/mL)
// units = µg/mL; emit number, no label

Return reported MIC50. Input compound: Cc1nc(-c2ccc(-c3ccc(N4C[C@H](COC(=O)CN)OC4=O)cc3F)cc2)oc1C [Compound 23, trifluoroacetic acid]
2

Return reported MIC50. Input compound: Cn1nnnc1-c1ccc(-c2ccc(N3C[C@H](COP(=O)([O-])[O-])OC3=O)cc2F)cn1.[Na+].[Na+] [Compound 70]
0.5

Return reported MIC50. Input compound: Cc1nc(-c2ccc(-c3ccc(N4C[C@H](CO)OC4=O)cc3F)cc2)oc1C [Compound 21]
1

Return reported MIC50. Input compound: O=C1O[C@@H](CO)CN1c1ccc(-c2ccc(-n3nccn3)nc2)c(F)c1 [Compound 29]
0.5

Return reported MIC50. Input compound: Cc1nnc(-c2ccc(-c3ccc(N4C[C@H](COC(=O)[C@@H]5CCCN5)OC4=O)cc3F)cn2)o1.Cl [Compound 56]
0.5

Return reported MIC50. Input compound: N#CCc1csc(-c2ccc(-c3ccc(N4C[C@H](CO)OC4=O)cc3F)cc2)n1 [Compound 32]
0.5

Return reported MIC50. Input compound: O=C1O[C@@H](CO)CN1c1ccc(-c2ccc(-n3ccnn3)nc2)c(F)c1 [Compound 24]
0.5

###

Provide the recorded solubility at 2 min for the entries that follow.
Experiment: Assay for solubility in distilled water (turbidity by naked eye)
Assay type: physicochemical
Settings: thermodynamic from solid, average of three runs
Description: The derivatives of the present invention were added to 200 μl of distilled water and then the solution was stirred for 2 minutes. The turbidity of the solution was watched through naked eye. When the derivatives were not dissolved completely, 50 μl of distilled water was added to the solution and then the turbidity of the solution was assayed in the above manner to find a point of becoming transparent solution. […]

Return reported solubility at 2 min. Input compound: Cn1nnnc1-c1ccc(-c2ccc(N3C[C@H](COC(=O)CCN)OC3=O)cc2F)cn1 [Compound 68, trifluoroacetic acid]
2600 µg/mL

Return reported solubility at 2 min. Input compound: C[C@H](N)C(=O)OC[C@H]1CN(c2ccc(-c3ccc(-c4nnnn4C)nc3)c(F)c2)C(=O)O1 [Compound 64, trifluoroacetic acid]
> 50000 µg/mL

Return reported solubility at 2 min. Input compound: Cc1nnc(-c2ccc(-c3ccc(N4C[C@H](COC(=O)[C@H](C)N)OC4=O)cc3F)cn2)o1 [Compound 51, trifluoroacetic acid]
> 50000 µg/mL

Return reported solubility at 2 min. Input compound: Cn1nnc(-c2ccc(-c3ccc(N4C[C@H](COC(=O)[C@@H]5CCCN5)OC4=O)cc3F)cn2)n1 [Compound 46, trifluoroacetic acid]
< 1630 µg/mL

Return reported solubility at 2 min. Input compound: Cc1nnc(-c2ccc(-c3ccc(N4C[C@H](COC(=O)[C@@H]5CCCN5)OC4=O)cc3F)cn2)o1 [Compound 55, trifluoroacetic acid]
7200 µg/mL

Return reported solubility at 2 min. Input compound: Cc1nnc(-c2ccc(-c3ccc(N4C[C@H](COC(=O)CN)OC4=O)cc3F)cn2)o1.Cl [Compound 48]
> 50000 µg/mL

Return reported solubility at 2 min. Input compound: Cn1nnnc1-c1ccc(-c2ccc(N3C[C@H](COP(=O)([O-])[O-])OC3=O)cc2F)cn1.[Na+].[Na+] [Compound 70]
> 50000 µg/mL

Return reported solubility at 2 min. Input compound: CC(C)[C@H](N)C(=O)OC[C@H]1CN(c2ccc(-c3ccc(-c4nnnn4C)nc3)c(F)c2)C(=O)O1 [Compound 66, trifluoroacetic acid]
4700 µg/mL

Return reported solubility at 2 min. Input compound: Cc1nnc(-c2ccc(-c3ccc(N4C[C@H](COC(=O)[C@H](C)N)OC4=O)cc3F)cn2)o1.Cl [Compound 52]
> 50000 µg/mL

Return reported solubility at 2 min. Input compound: Cc1nnc(-c2ccc(-c3ccc(N4C[C@H](COC(=O)[C@@H](N)C(C)C)OC4=O)cc3F)cn2)o1.Cl [Compound 54]
2900 µg/mL

Return reported solubility at 2 min. Input compound: Cc1nnc(-c2ccc(-c3ccc(N4C[C@H](CO)OC4=O)cc3F)cn2)o1 [Compound 16]
20 µg/mL

Return reported solubility at 2 min. Input compound: Cc1nnc(-c2ccc(-c3ccc(N4C[C@H](COC(=O)CN)OC4=O)cc3F)cn2)o1 [Compound 27, trifluoroacetic acid]
> 50000 µg/mL

Return reported solubility at 2 min. Input compound: Cc1nnc(-c2ccc(-c3ccc(N4C[C@H](COC(=O)CCN)OC4=O)cc3F)cn2)o1 [Compound 57, trifluoroacetic acid]
> 50000 µg/mL

###

Experiment: Assay for solubility in distilled water (turbidity by naked eye)
Assay type: physicochemical
Settings: average of three runs
Provide the recorded Solubility for the entries that follow.
// units = µg/mL; emit number, no label

Return reported Solubility. Input molecule: Cl.Cn1nnc(-c2ccc(-c3ccc(N4C[C@H](COC(=O)CN)OC4=O)cc3F)cn2)n1 [Compound 45]
12000

Return reported Solubility. Input molecule: CC(C)[C@H](N)C(=O)OC[C@H]1CN(c2ccc(-c3ccc(-c4nnn(C)n4)nc3)c(F)c2)C(=O)O1 [Compound 20, trifluoroacetic acid]
4700

Return reported Solubility. Input molecule: CC(C)[C@H](N)C(=O)OC[C@H]1CN(c2ccc(-c3ccc(-c4nnn(C)n4)nc3)c(F)c2)C(=O)O1.Cl [Compound 43]
4200

Return reported Solubility. Input molecule: Cn1nnc(-c2ccc(-c3ccc(N4C[C@H](COC(=O)CN)OC4=O)cc3F)cn2)n1 [Compound 12, trifluoroacetic acid]
28000

###

Tested on: vancomycin resistant Enterococci (VRE)
Test: Assay for in vitro antibacterial activity, agar dilution (VRE)
Conditions: Enterococcus, read-out: Minimum Inhibitory Concentration (MIC50) VRE
Provide the recorded MIC50 for the entries that follow.
// units = µg/mL; emit number, no label

Return reported MIC50. Input compound: `Cn1nnnc1-c1ccc(-c2ccc(N3C[C@H](Cn4ccnn4)OC3=O)cc2F)cn1`
0.125

Return reported MIC50. Input compound: CC(=O)NC[C@H]1CN(c2ccc(-c3ccc(C4=NOC(COC(=O)CN)C4)nc3)c(F)c2)C(=O)O1 (stereo partly shown)
0.5

Return reported MIC50. Input compound: `Cn1nnnc1-c1ccc(-c2ccc(N3C[C@H](COP(=O)(O)O)OC3=O)cc2F)cn1`
32

Return reported MIC50. Input compound: `CC(=O)NC[C@H]1CN(c2ccc(-c3ccc(-c4nc(COC(=O)CN)cs4)cc3)c(F)c2)C(=O)O1`
0.5

Return reported MIC50. Input compound: CC(=O)NC[C@H]1CN(c2ccc(-c3ccc(C4=NC(CO)CO4)cc3)c(F)c2)C(=O)O1 (stereo partly shown)
0.5

Return reported MIC50. Input compound: `Cn1nnc(-c2ccc(-c3ccc(N4C[C@H](CF)OC4=O)cc3F)cn2)n1`
2

Return reported MIC50. Input compound: `CC(=O)NC[C@H]1CN(c2ccc(-c3ccc(-n4nccn4)nc3)c(F)c2)C(=O)O1`
0.125

###

Test system: vancomycin resistant Enterococci (VRE)
Assay: Assay for in vitro antibacterial activity, agar dilution (VRE)
Conditions: Enterococcus, read-out: Minimum Inhibitory Concentration (MIC50) VRE
measure: log10(MIC50) (log10 of the value in µg/mL)
In plain terms, each number is the log10 of measured MIC50 in µg/mL.

Return reported log10(MIC50). Input compound: CC(=O)NC[C@H]1CN(c2ccc(-c3ccc(-c4nc(CO)cs4)cc3)c(F)c2)C(=O)O1 [Compound 28]
-0.30

Return reported log10(MIC50). Input compound: Cn1nnc(-c2ccc(-c3ccc(N4C[C@H](COP(=O)(O)O)OC4=O)cc3F)cn2)n1 [Compound 72]
1.51

Return reported log10(MIC50). Input compound: Cc1nnc(-c2ccc(-c3ccc(N4C[C@H](COC(=O)[C@H](C)N)OC4=O)cc3F)cn2)o1.Cl [Compound 52]
0.00

Return reported log10(MIC50). Input compound: Cn1nnc(-c2ccc(-c3ccc(N4C[C@H](CO)OC4=O)cc3F)cn2)n1 [Compound 10]
-0.60

Return reported log10(MIC50). Input compound: COC[C@H]1CN(c2ccc(-c3ccc(-c4nnn(C)n4)nc3)c(F)c2)C(=O)O1 [Compound 33]
0.30

Return reported log10(MIC50). Input compound: NCC(=O)OCc1csc(-c2ccc(-c3ccc(N4C[C@H](Cn5ccnn5)OC4=O)cc3F)cc2)n1 [Compound 37, trifluoroacetic acid]
-0.30

Return reported log10(MIC50). Input compound: Cl.Cn1nnnc1-c1ccc(-c2ccc(N3C[C@H](COC(=O)CN)OC3=O)cc2F)cn1 [Compound 63]
-0.60

Return reported log10(MIC50). Input compound: Cc1nc(-c2ccc(-c3ccc(N4C[C@H](CO)OC4=O)cc3F)cc2)oc1C [Compound 21]
0.00

Return reported log10(MIC50). Input compound: Cn1nnc(-c2ccc(-c3ccc(N4C[C@H](Cn5cncn5)OC4=O)cc3F)cn2)n1 [Compound 4]
0.30

Return reported log10(MIC50). Input compound: Cn1nnnc1-c1ccc(-c2ccc(N3C[C@H](CO)OC3=O)cc2F)cn1 [Compound 61]
-0.60

Return reported log10(MIC50). Input compound: CC(=O)NC[C@H]1CN(c2ccc(-c3ccc(-c4nc(C)c(C)o4)cc3)c(F)c2)C(=O)O1 [Compound 11]
-0.60

Return reported log10(MIC50). Input compound: Cl.Cn1nnnc1-c1ccc(-c2ccc(N3C[C@H](COC(=O)CCN)OC3=O)cc2F)cn1 [Compound 69]
-0.60

Return reported log10(MIC50). Input compound: Cl.Cn1nnc(-c2ccc(-c3ccc(N4C[C@H](COC(=O)[C@@H]5CCCN5)OC4=O)cc3F)cn2)n1 [Compound 47]
-0.60

Return reported log10(MIC50). Input compound: Cc1nnc(-c2ccc(-c3ccc(N4C[C@H](COP(=O)([O][Na+])[O][Na+])OC4=O)cc3F)cn2)o1 [Compound 60]
0.00

Return reported log10(MIC50). Input compound: CC(C)[C@H](N)C(=O)OC[C@H]1CN(c2ccc(-c3ccc(-c4nnnn4C)nc3)c(F)c2)C(=O)O1.Cl [Compound 67]
-0.60
